B1: HDV Ribozyme (parent)
chain: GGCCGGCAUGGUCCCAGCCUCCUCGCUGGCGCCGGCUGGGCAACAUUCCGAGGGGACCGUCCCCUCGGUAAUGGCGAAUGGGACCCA

Variants of: B1
TEST PROTOCOL: self-cleavage, relative activity (ratio to wild type); higher = more cleavage; co-transcriptional
Provide the recorded self-cleavage for the entries that follow.
Could you respond with only the numeric value?

**Query** State the recorded self-cleavage for this entry: C36U C44U
**Result** 0.197

**Query** State the recorded self-cleavage for this entry: C58A C75A
**Result** 0.201

**Query** State the recorded self-cleavage for this entry: C32A A45G
**Result** 0.198
